Biological target: Cytochrome P450 2C19 (Homo sapiens) (UniProt P33261)
Sequence (P33261 whole entry, looked up): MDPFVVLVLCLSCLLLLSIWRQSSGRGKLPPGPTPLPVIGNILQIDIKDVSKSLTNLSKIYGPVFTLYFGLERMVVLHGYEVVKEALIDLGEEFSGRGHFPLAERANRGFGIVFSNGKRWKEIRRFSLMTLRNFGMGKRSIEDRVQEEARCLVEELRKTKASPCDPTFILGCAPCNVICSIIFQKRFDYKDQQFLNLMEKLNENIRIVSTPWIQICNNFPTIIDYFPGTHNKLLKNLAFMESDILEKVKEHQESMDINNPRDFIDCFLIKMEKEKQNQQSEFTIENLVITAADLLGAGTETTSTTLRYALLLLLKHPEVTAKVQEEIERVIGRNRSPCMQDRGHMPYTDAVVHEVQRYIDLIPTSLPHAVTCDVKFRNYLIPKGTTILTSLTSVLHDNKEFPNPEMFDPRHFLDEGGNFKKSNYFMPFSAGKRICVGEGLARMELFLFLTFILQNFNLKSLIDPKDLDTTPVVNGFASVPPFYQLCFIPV
Experiment: Cytochrome panel assay with activity outcomes
Settings: recombinant CYP, pro-luciferin dealkylation, luminescence, p450-cyp2c19; series mostly up to 57.1 µM
Out of some 16,000 compounds screened, about 5,800 (36%) were called active. Inconclusive results (about 23%) are left out. Calls follow the shape of the dose curve; as a rule, active = well fitted curve in the direction sought with a large enough effect; inconclusive = small, poorly fitted or top-dose-only effect, or effect the other way; inactive = no such curve, though single readings can be large or run the other way. This is one part of the list.
Select the correct class. Options are active, inactive and nothing else.

molecule: COC(=O)c1sccc1NC(=O)CSc1ccc(Cl)cc1
class_assignment: active

Problem: In this assay, the call recorded for COc1cccc(-c2cc(C(F)(F)F)nc(N3CCN(c4ccccc4)CC3)n2)c1 was what?
Result: active

Problem: How about O=C(NCCc1ccccc1)N1c2ccccc2Sc2ccccc21 ?
Result: active

Problem: How about COc1cccc(-c2cc(C(F)(F)F)nc(N3CCOCC3)n2)c1 ?
Result: active

Problem: How about COC(=O)c1sccc1-c1ccc(C(=O)Nc2cccc(Cl)c2)o1 ?
Result: active

Problem: How about COc1ccc(C(=O)N2CCC3(CCN(C)CC3)CC2)cc1 ?
Result: inactive

Problem: How about COC(=O)COc1ccsc1C(=O)OC ?
Result: inactive

Problem: How about N#C/C(=C\c1ccc(N2CCCC2)c([N+](=O)[O-])c1)c1nc2ccccc2[nH]1 ?
Result: active

Problem: How about O=C(O)[C@H]1CCCN(CCC=C(c2ccccc2)c2ccccc2)C1 ?
Result: inactive

Provenance of the data: PubChem BioAssay AID1851
